Biological target: Retinoic acid receptor beta (Homo sapiens) (UniProt P10826)
Sequence (whole entry): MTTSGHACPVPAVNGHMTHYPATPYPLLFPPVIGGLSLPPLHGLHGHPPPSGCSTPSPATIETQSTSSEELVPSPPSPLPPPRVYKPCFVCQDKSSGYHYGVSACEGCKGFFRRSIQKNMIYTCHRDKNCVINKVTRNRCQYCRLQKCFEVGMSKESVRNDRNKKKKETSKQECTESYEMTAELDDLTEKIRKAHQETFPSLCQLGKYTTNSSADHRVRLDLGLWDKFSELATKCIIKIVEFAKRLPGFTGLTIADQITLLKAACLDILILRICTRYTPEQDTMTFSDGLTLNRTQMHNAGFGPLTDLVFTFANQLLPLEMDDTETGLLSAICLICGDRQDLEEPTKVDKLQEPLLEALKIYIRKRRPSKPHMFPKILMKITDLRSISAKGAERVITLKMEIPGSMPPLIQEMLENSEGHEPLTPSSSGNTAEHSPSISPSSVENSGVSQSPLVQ
Assay: Relative transcriptional activation in CV-1 cells expressing RAR beta receptor compared to ATRA
Assay type: functional, cell-based
Details: Cercopithecidae
reported.endpoint: Relative EC30 (nM)

Before answering, review these 5 worked examples.
compound.smiles	reported.endpoint	experimental.value
O=C(O)c1ccc(-c2ccc(-c3ccc4cccc(-c5ccccc5)c4c3)[nH]2)cc1	Relative EC30	880
CC(/C=C/C=C(\C)c1ccc2c(c1)C(C)(C)CCC2(C)C)=C\C(=O)O	Relative EC30	0.2
CC(/C=C/C=C(\C)c1ccc2c(C)ccc(C)c2c1)=C\C(=O)O	Relative EC30	11
Cc1ccc(C)c2cc(-c3ccc(-c4ccc(C(=O)O)cc4)[nH]3)ccc12	Relative EC30	250
Cc1ccc(C)c2c1C=C(c1ccc(-c3ccc(C(=O)O)cc3)[nH]1)CO2	Relative EC30	240

a. CC(C)c1cccc2ccc(-c3ccc(-c4ccc(C(=O)O)cc4)[nH]3)cc12
b. Cc1cccc2c1C=C(c1ccc(-c3ccc(C(=O)O)cc3)[nH]1)CO2
q: Consider entries a and b . Which has the numerically lower Relative EC30? Refer to your chosen entry by its label in the reply.
a: a
